# IC50 against 72 kDa type IV collagenase (Homo sapiens), merged from multiple literature sources
propertyName: IC50 (nM)

>>> reportedmeasurement("CC1c2c(NC3CCC3)ccc(O)c2C(=O)C2=C(O)C3(O)C(=O)C(C(N)=O)=C(O)C(N(C)C)C3C(O)C21 (stereo not shown)")
236000
>>> reportedmeasurement("Cc1cc(COc2ccc(S(=O)(=O)CC(C(F)=C3CCOCC3)N(O)C=O)cc2)c2ccccc2n1 (stereo not shown)")
40000
>>> reportedmeasurement("COc1ccc(S(=O)(=O)N2[C@H](C(=O)NO)C[C@@H]3CCN(C(=O)OCc4ccccc4)C[C@@H]32)cc1 (relative stereo)")
490
>>> reportedmeasurement("CCc1ccc(-c2nc(-c3ccc(S(=O)(=O)N[C@@H](C(=O)O)C(C)C)cc3)no2)cc1")
1.24
>>> reportedmeasurement("C[C@@H](NS(=O)(=O)c1ccc(-c2noc(-c3cccs3)n2)s1)C(=O)O")
28
